Target: T1, DVL3, Q92997
T1 sequence (Q92997 244-331, limits assumed, looked up): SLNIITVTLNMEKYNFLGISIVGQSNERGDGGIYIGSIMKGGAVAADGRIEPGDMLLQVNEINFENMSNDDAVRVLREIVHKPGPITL
Assay: holdup assay
Design: key: below the threshold = too weak to quantify, mostly under pKd 3.1 to 4
Conditions: plain residues with an end cap or a label only (N-terminal biotin on a linker: ado-ado)
Quantity measured: pKd

{"Binder": "DTKNYKQTSV [CRIPT, Q9P021]", "Quantity measured": "pKd", "Reported result": "below the threshold"}
{"Binder": "ELSATVTTDC [TRIP6, Q15654]", "Quantity measured": "pKd", "Reported result": "below the threshold"}
{"Binder": "QKAPTKEFYA [SDC2, P34741]", "Quantity measured": "pKd", "Reported result": "below the threshold"}
{"Binder": "NTANRRTTPV [CACNG2, Q9Y698]", "Quantity measured": "pKd", "Reported result": "below the threshold"}
{"Binder": "VKRNSKETVV [MARCHF3, Q86UD3]", "Quantity measured": "pKd", "Reported result": "below the threshold"}
{"Binder": "NNNVVKVDSV [MTNR1A, P48039]", "Quantity measured": "pKd", "Reported result": "below the threshold"}

Incoming: Given the binder LPAVCYDIDI [PTTG2, Q9NZH5] , what is its reported pKd?
Outgoing: below the threshold

Incoming: Now try ARSAAASNYV [CLDN4, O14493] .
Outgoing: 3.66
